# Tested on: Nakaseomyces glabratus
# EXPERIMENTAL DETAILS: Antimicrobial activity against Candida glabrata 537 after 24 hrs by serial dilution method
# Assay type: functional
# CONDITION SUMMARY: Nakaseomyces glabratus, 537, 24 h
Criterion: MIC strictly less than 1 µg/mL. Met: fulfilled. Not met: not fulfilled.

- C[C@@H](N1CCn2nc(-c3cccs3)nc2C1)[C@](O)(Cn1cncn1)c1ccc(F)cc1F: fulfilled
- C[C@@H](N1CCn2nnc(-c3ccc(C#N)nc3)c2C1)[C@](O)(Cn1cncn1)c1ccc(F)cc1F: not fulfilled
- C[C@@H](N1CCn2nc(-c3cncnc3)nc2C1)[C@](O)(Cn1cncn1)c1ccc(F)cc1F: fulfilled
- Cc1ncc(-c2nc3n(n2)CCN([C@H](C)[C@](O)(Cn2cncn2)c2ccc(F)cc2F)C3)cn1: fulfilled
- C[C@@H](N1CCn2nc(-c3ccc(F)nc3)nc2C1)[C@](O)(Cn1cncn1)c1ccc(F)cc1F: fulfilled
- C[C@@H](N1CCn2nc(-c3ccsc3)nc2C1)[C@](O)(Cn1cncn1)c1ccc(F)cc1F: fulfilled
- C[C@@H](N1CCc2sc(-c3ccncc3)cc2C1)[C@](O)(Cn1cncn1)c1ccc(F)cc1F: not fulfilled

---

# Test system: Aspergillus fumigatus
# EXPERIMENTAL DETAILS: Antimicrobial activity against Aspergillus fumigatus 7544 after 48 hrs by serial dilution method
# Assay type: functional
# CONDITION SUMMARY: Aspergillus fumigatus, 7544, 48 h
Each record here notes measured MIC.
REPORTED PROPERTY: MIC (µg/mL)

- COc1cccc(-c2nc3c(s2)CN([C@H](C)[C@](O)(Cn2cncn2)c2ccc(F)cc2F)CC3)c1: 16
- C[C@@H]1[C@H](O)[C@@H](C)/C=C/C=C/C=C/C=C/C=C/C=C/C=C/[C@H](O[C@@H]2O[C@H](C)[C@@H](O)[C@H](N)[C@@H]2O)C[C@@H]2O[C@](O)(C[C@@H](O)C[C@@H](O)[C@H](O)CC[C@@H](O)C[C@@H](O)CC(=O)O[C@H]1C)C[C@H](O)[C@H]2C(=O)O [AMPHOTERICIN B]: 4
- C[C@@H](N1CCn2nc(C(F)(F)F)nc2C1)[C@](O)(Cn1cncn1)c1ccc(F)cc1F: 32
- C[C@@H](N1CCc2sc(-c3ccc(F)cc3)cc2C1)[C@](O)(Cn1cncn1)c1ccc(F)cc1F: 64
- C[C@@H](N1CCc2nc(-c3cncc(F)c3)sc2C1)[C@](O)(Cn1cncn1)c1ccc(F)cc1F: 8
- C[C@@H](n1cnc2cc(Cl)ccc2c1=O)[C@](O)(Cn1cncn1)c1ccc(F)cc1F [ALBACONAZOLE]: 0.5

---

# EXPERIMENTAL DETAILS: Clearance in Sprague-Dawley rat at 5 mg/kg, iv
# Assay type: ADME, organism-based
# Parameters: dose 5 mg/kg, route intravenous
# CONDITION SUMMARY: in vivo
REPORTED PROPERTY: clearance (mL/min/kg)

- C[C@@H](N1CCc2nc(-c3cncnc3)sc2C1)[C@](O)(Cn1cncn1)c1ccc(F)cc1F.O.O=S(=O)(O)O: 72.5

---

# System: Nakaseomyces glabratus
# EXPERIMENTAL DETAILS: Antimicrobial activity against Candida glabrata 537 after 24 hrs by serial dilution method
# Assay type: functional
# CONDITION SUMMARY: Nakaseomyces glabratus, 537, 24 h
Each record here notes measured MIC.
REPORTED PROPERTY: MIC

• C[C@@H](N1CCn2nc(-c3cccc(C(F)(F)F)c3)nc2C1)[C@](O)(Cn1cncn1)c1ccc(F)cc1F = 0.25 µg/mL
• C[C@@H](N1CCn2nc(-c3cccc(Br)c3)nc2C1)[C@](O)(Cn1cncn1)c1ccc(F)cc1F = 1 µg/mL
• C[C@@H](N1CCc2cc(-c3cncnc3)sc2C1)[C@](O)(Cn1cncn1)c1ccc(F)cc1F = 1 µg/mL
• C[C@@H](N1CCn2nnc(-c3cncnc3)c2C1)[C@](O)(Cn1cncn1)c1ccc(F)cc1F = 8 µg/mL
• C[C@@H](N1CCc2nc(-c3ccc(C(F)(F)F)cc3)sc2C1)[C@](O)(Cn1cncn1)c1ccc(F)cc1F = 1 µg/mL
• C[C@@H](N1CCn2nc(-c3cncc(C#N)c3)nc2C1)[C@](O)(Cn1cncn1)c1ccc(F)cc1F = 1 µg/mL
• C[C@@H](N1CCc2nc(-c3cccnc3)sc2C1)[C@](O)(Cn1cncn1)c1ccc(F)cc1F = 0.125 µg/mL
• C[C@@H](N1CCn2nc(-c3ccc(C#N)cc3)nc2C1)[C@](O)(Cn1cncn1)c1ccc(F)cc1F = 0.125 µg/mL

---

Each record here notes measured MIC.
# Test system: Aspergillus fumigatus
# EXPERIMENTAL DETAILS: Antimicrobial activity against Aspergillus fumigatus 7544 after 48 hrs by serial dilution method
# Assay type: functional
# CONDITION SUMMARY: Aspergillus fumigatus, 7544, 48 h
REPORTED PROPERTY: MIC (µg/mL)

- COc1ccc(-c2nc3c(s2)CN([C@H](C)[C@](O)(Cn2cncn2)c2ccc(F)cc2F)CC3)cn1: 16
- COc1ncc(-c2nc3c(s2)CN([C@H](C)[C@](O)(Cn2cncn2)c2ccc(F)cc2F)CC3)cn1: 8
- C[C@@H](N1CCn2cc(-c3ccc(F)cc3)nc2C1)[C@](O)(Cn1cncn1)c1ccc(F)cc1F: 32
- C[C@@H](N1CCc2nc(-c3ccc(Br)cc3)sc2C1)[C@](O)(Cn1cncn1)c1ccc(F)cc1F: 16
- C[C@@H](N1CCn2nc(-c3cccc(C#N)c3)nc2C1)[C@](O)(Cn1cncn1)c1ccc(F)cc1F: 16
- C[C@@H](N1CCn2nc(-c3cncc(C#N)c3)nc2C1)[C@](O)(Cn1cncn1)c1ccc(F)cc1F: 64
- C[C@@H](N1CCc2nc(-c3ccccc3)sc2C1)[C@](O)(Cn1cncn1)c1ccc(F)cc1F: 16

---

# Tested on: Candida parapsilosis
# EXPERIMENTAL DETAILS: Antimicrobial activity against Candida parapsilosis 22019 after 24 hrs by serial dilution method
# Assay type: functional
# CONDITION SUMMARY: Lodderomyces parapsilosis, 22019, 24 h
Each record here notes measured MIC.
REPORTED PROPERTY: MIC

* C[C@@H](N1CCn2nc(-c3cccc(C(F)(F)F)c3)nc2C1)[C@](O)(Cn1cncn1)c1ccc(F)cc1F | 0.5 µg/mL
* Cc1ccc(-c2nc3c(s2)CN([C@H](C)[C@](O)(Cn2cncn2)c2ccc(F)cc2F)CC3)cc1 | 0.5 µg/mL
* C[C@@H](N1CCn2cc(-c3ccc(C(F)(F)F)cc3)nc2C1)[C@](O)(Cn1cncn1)c1ccc(F)cc1F | 0.25 µg/mL
* Cc1ncc(-c2nc3n(n2)CCN([C@H](C)[C@](O)(Cn2cncn2)c2ccc(F)cc2F)C3)cn1 | 0.125 µg/mL

---

# Tested on: Nakaseomyces glabratus
# EXPERIMENTAL DETAILS: Antimicrobial activity against Candida glabrata 537 after 24 hrs by serial dilution method
# Type: functional
# CONDITION SUMMARY: Nakaseomyces glabratus, 537, 24 h
Criterion: MIC strictly less than 4 µg/mL. Met: condition met. Not met: condition not met.

- C[C@@H](N1CCc2nc(-c3cncnc3)sc2C1)[C@](O)(Cn1cncn1)c1ccc(F)cc1F: condition met
- C[C@@H](N1CCn2nnc(C(=O)N(C)C)c2C1)[C@](O)(Cn1cncn1)c1ccc(F)cc1F: condition not met
- C[C@@H](N1CCn2nnc(-c3cccnc3)c2C1)[C@](O)(Cn1cncn1)c1ccc(F)cc1F: condition not met
- C[C@@H](N1CCc2nc(-c3ccc(Br)cc3)sc2C1)[C@](O)(Cn1cncn1)c1ccc(F)cc1F: condition met
- C[C@@H](N1CCn2nc(-c3ccc(Br)cc3)nc2C1)[C@](O)(Cn1cncn1)c1ccc(F)cc1F: condition met
- C[C@@H](c1ncncc1F)[C@](O)(Cn1cncn1)c1ccc(F)cc1F: condition met
- COc1cccc(-c2nc3n(n2)CCN([C@H](C)[C@](O)(Cn2cncn2)c2ccc(F)cc2F)C3)c1: condition met

---

# EXPERIMENTAL DETAILS: Intrinsic clearance in Sprague-Dawley rat liver microsomes assessed per mg protein at 0.1 uM by LC/MS/MS analysis
# Assay type: ADME
# CONDITION SUMMARY: read-out: CLH
Each record here notes measured microsomal CLint at 0.1 µM.
REPORTED PROPERTY: microsomal CLint at 0.1 µM (µL/min/mg)

- C[C@@H](N1CCc2nc(-c3cncnc3)sc2C1)[C@](O)(Cn1cncn1)c1ccc(F)cc1F.O.O=S(=O)(O)O: 65
- C[C@@H](N1CCn2nc(-c3ccc(C#N)nc3)nc2C1)[C@](O)(Cn1cncn1)c1ccc(F)cc1F: 5

---

# EXPERIMENTAL DETAILS: Half life in Sprague-Dawley rat at 10 mg/kg, po
# Format: ADME, organism-based
# Design: dose 10 mg/kg, route oral
# CONDITION SUMMARY: in vivo
REPORTED PROPERTY: half-life (h)

• C[C@@H](N1CCn2nc(-c3ccc(C#N)nc3)nc2C1)[C@](O)(Cn1cncn1)c1ccc(F)cc1F = 3.63
• C[C@@H](N1CCc2nc(-c3cncnc3)sc2C1)[C@](O)(Cn1cncn1)c1ccc(F)cc1F.O.O=S(=O)(O)O = 0.46
